Assay: Solubility in aqueous buffers, FaSSIF and FeSSIF (HPLC/UV)
Format: physicochemical
Settings: water, 25 °C, thermodynamic from solid, shaken 4 hours
quantity_name: solubility at 4 h (µg/mL)
Write the value in µg/mL as a bare number.

*Q* Which solubility at 4 h value is on record for COc1ccc([C@@H]2[C@@H](CC[C@H](O)c3ccc(F)cc3)C(=O)N2c2ccc(CNC(=O)CCCCCCCCCCC(=O)NC[C@H](O)[C@@H](O)[C@H](O)[C@H](O)CO)cc2)cc1 ?
*A* 3

----------
Experiment: Solubility in aqueous buffers, FaSSIF and FeSSIF (HPLC/UV)
Assay type: physicochemical
Settings: aqueous buffer, 25 °C, pH 8, aqueous buffer, thermodynamic from solid, 4 hours
quantity_name: solubility at 4 h (µg/mL)
Write the value in µg/mL as a bare number.

*Q* Which solubility at 4 h value is on record for COc1ccc([C@@H]2[C@@H](CC[C@H](O)c3ccc(F)cc3)C(=O)N2c2ccc(CNC(=O)CCCCCCCCCCC(=O)NC[C@H](O)[C@@H](O)[C@H](O)[C@H](O)CO)cc2)cc1 [Example I] ?
*A* 2

Data origin: patent US7772429B2
